system-under-test: T1, monkey GPC3 on HEK293T-monkey GPC3 cells (monkey)
T1 construct: whole, on cells
measurement-description: FACS on HEK293T-monkey GPC3 cells
// pEC50 lookup, one value per entry
Reminder that pEC50 means the negative base-10 logarithm of the concentration expressed in mol/L.

binder	pEC50
hAb006LH3L1b (antibody, human IgG1, V domains shown, Humanized F3.38.7) VH: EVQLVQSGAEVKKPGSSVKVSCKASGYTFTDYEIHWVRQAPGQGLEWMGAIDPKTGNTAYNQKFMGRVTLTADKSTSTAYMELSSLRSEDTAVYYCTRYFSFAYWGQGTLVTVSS VL: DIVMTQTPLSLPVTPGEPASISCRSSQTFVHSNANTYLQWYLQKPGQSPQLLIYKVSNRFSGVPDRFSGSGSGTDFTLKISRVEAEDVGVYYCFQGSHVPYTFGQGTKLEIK	8.75

The record that follows has no pEC50 shown yet.
### Prompt Please supply the value of reported pEC50 for the item hAb006LH1L1b (antibody, human IgG1, V domains shown, Humanized F3.38.7) VH: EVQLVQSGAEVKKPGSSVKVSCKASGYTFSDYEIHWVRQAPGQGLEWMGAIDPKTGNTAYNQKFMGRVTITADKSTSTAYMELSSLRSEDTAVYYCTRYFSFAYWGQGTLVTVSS VL: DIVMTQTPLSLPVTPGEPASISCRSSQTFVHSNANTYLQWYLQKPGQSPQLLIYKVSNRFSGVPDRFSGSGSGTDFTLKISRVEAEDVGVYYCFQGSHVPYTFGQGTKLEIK
### Response 8.76

All values here come from patent US20260116991A1.
